Target: Tyrosyl-tRNA synthetase, putative (Trypanosoma cruzi (strain CL Brener)) (UniProt Q4DSP6)
Sequence (whole entry): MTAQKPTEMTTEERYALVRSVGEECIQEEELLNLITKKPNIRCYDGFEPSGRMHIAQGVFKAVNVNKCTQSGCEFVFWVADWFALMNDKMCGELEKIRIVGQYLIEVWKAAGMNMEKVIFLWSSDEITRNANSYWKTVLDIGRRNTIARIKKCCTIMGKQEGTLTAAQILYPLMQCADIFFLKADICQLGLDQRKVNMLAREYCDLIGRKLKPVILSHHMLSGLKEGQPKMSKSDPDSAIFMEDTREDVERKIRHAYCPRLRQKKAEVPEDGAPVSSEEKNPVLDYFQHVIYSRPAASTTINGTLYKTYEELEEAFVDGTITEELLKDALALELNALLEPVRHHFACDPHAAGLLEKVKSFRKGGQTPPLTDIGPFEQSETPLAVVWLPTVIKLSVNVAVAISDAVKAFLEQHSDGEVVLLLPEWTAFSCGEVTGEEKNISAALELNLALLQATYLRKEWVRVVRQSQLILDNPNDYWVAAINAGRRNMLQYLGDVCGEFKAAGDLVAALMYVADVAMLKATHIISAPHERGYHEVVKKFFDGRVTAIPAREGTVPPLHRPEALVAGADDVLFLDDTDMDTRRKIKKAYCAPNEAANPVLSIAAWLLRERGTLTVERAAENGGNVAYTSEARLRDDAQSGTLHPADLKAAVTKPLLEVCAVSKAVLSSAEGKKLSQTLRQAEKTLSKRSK
Test: Trypanosoma cruzi tyrosyl tRNA synthetase (TcYRS) _High Tyrosine SOP; further: in the data most compounds retested in dose-response had high values
Format: functional
Design: scale not given: direction of the effect not stated beside the values
Conditions: 30 µM
In this section, each of the compounds is paired with its reported Percent Effect.
# value in %; strip the unit string

These recorded examples may help you get a feel for the data.
N#CCCN(CCC#N)C(=O)CN1CCCC1Cc1cccc(F)c1 (stereo not given)
7.92
CC(C)(C)c1n[nH]c(C2CN(C(=O)CCC3CC3)CCO2)n1 (stereo not given)
3.35

Query string: // returns reported Percent Effect for input Cc1c[nH]nc1C1CCCCN1C(=O)Cn1cc(Cl)cn1 (stereo not given)
Result string: 3.17

Query string: // returns reported Percent Effect for input CN(C)C(=O)N1Cc2nnn(C)c2C(COCC2CC2)C1 (stereo not given)
Result string: 2.08

Query string: // returns reported Percent Effect for input CCN1CCN(Cc2ccnc(-c3cccnc3)n2)CC1
Result string: 4.3

Query string: // returns reported Percent Effect for input Cn1nc(CNC(=O)c2ccc(Cl)cc2)c2c1CCOC2
Result string: 4.23

Query string: // returns reported Percent Effect for input CCc1nccn1C1CCCN(C(=O)c2cn3c(C)cccc3n2)C1 (stereo not given)
Result string: 3.19

###

Target: Protein translocase subunit SecA (Escherichia coli (strain K12)) (UniProt P10408)
Sequence (P10408 whole entry): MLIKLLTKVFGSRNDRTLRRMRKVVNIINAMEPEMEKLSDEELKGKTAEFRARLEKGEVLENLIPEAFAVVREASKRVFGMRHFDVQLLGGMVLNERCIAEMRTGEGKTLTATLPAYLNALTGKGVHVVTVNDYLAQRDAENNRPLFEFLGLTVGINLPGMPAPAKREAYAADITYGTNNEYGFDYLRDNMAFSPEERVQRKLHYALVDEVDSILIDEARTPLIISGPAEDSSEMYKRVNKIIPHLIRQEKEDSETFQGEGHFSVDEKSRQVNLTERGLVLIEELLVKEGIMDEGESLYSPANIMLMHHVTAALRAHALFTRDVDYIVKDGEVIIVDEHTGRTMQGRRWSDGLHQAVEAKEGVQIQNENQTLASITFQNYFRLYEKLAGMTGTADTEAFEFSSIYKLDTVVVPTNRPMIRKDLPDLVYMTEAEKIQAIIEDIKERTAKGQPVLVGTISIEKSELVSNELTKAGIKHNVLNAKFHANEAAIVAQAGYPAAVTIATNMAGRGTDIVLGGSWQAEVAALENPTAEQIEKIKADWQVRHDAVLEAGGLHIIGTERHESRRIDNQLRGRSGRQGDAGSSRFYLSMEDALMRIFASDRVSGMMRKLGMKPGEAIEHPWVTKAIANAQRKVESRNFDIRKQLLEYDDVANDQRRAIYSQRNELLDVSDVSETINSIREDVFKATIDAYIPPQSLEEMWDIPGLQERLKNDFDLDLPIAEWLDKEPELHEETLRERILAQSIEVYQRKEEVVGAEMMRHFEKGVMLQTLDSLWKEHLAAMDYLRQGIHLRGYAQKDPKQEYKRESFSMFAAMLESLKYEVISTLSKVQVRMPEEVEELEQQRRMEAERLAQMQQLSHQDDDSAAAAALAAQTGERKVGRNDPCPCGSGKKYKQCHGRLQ
Assay: Assay to Identify E. coli SecA ATPase Inhibitors
Type: functional
Parameters: scale not given: direction of the effect not stated beside the values
Settings: 30 µM
Potency and affinity values are given separately.
In this section, each of the compounds is paired with its reported Percent Effect.
# value in %; strip the unit string

Cc1cccnc1C(=O)N1CCCCC1c1[nH]ncc1S(C)(=O)=O (configuration not stated)
-3.04

Query string: // returns reported Percent Effect for input Cc1ncsc1C(=O)NC1CCN(CCC(N)=O)CC1
Result string: -5.32

###

In this section, each of the compounds is paired with its reported Percent Effect.
Species: Homo sapiens
Assay: To identify inhibition of the IFN signalling (Jak-Stat) pathway via expression of an eGFP reporter gene under the control of an IFN-stimulated response element (ISRE) containing MxA promoter.
Type: functional
Parameters: scale not given: direction of the effect not stated beside the values
Conditions: 30 µM
# value in %; strip the unit string

These recorded examples may help you get a feel for the data.
Cc1cnc(CN(C)C2CCN(CC(=O)Nc3nncs3)C2)o1 (centres undefined)
5.59
Cc1ccccc1N1CCN(C(=O)c2ccc[nH]2)C(C)C1 (centres undefined)
27.5
CCSCC(C)NCc1nncn1C1CCCCC1 (centres undefined)
-2.28

Next:
Query string: // returns reported Percent Effect for input Cc1cc(CN2CCOC(CN(C)c3cccnn3)C2)no1 (centres undefined)
Result string: 1.91

###

Organism: Homo sapiens
Assay: To identify inhibition of the IFN signalling (Jak-Stat) pathway via expression of an eGFP reporter gene under the control of an IFN-stimulated response element (ISRE) containing MxA promoter.
Format: functional
Set-up: scale not given: direction of the effect not stated beside the values
Conditions: 30 µM
quantity: Percent Effect (%)
# value in %; strip the unit string

These recorded examples may help you get a feel for the data.
Cn1cc(CNCC2Cn3nnc(-c4ccccc4)c3CO2)cn1 (stereo unspecified)
-2.48
CCS(=O)(=O)c1ccc(N2CCC(NC(=O)CCC(C)C)CC2)cc1
27.1
CCCOc1cc(C)ccc1NC(=O)NCCC(=O)N(C)C
10.2
Cc1cnn(C2CCCN(C(=O)c3cc(C4CC4)on3)C2)c1 (stereo unspecified)
-0.883
Cn1ccnc1CNC(=O)N(CCCO)C1CCCc2ccccc21 (stereo unspecified)
8.36

Query string: // returns reported Percent Effect for input COCCC(=O)N1C[C@H]2CN(Cc3cccc(C)n3)C(=O)[C@H]2C1
Result string: -13.5

Query string: // returns reported Percent Effect for input COc1cccc(OC)c1CN1CCC2(CC(Nc3ccncn3)C2)C1 (stereo unspecified)
Result string: 11.6

Query string: // returns reported Percent Effect for input COc1ccccc1OC1CCN(Cc2cnc(N(C)C)nc2)CC1
Result string: 1.97

Query string: // returns reported Percent Effect for input CC(C)c1nccn1-c1cccc(C2CCCN(C3CCCC3)C2)n1 (stereo unspecified)
Result string: 2.2

Query string: // returns reported Percent Effect for input CC(C)CNC(=O)NC(=O)CNc1ccccc1SCC(C)C#N (stereo unspecified)
Result string: 11.3

Query string: // returns reported Percent Effect for input CN(Cc1ccc(F)cc1)C(=O)NCC1(N2CCOCC2)CCSC1 (stereo unspecified)
Result string: 14.5

###

Target: AMP-activated protein kinase, AMPK (Homo sapiens) (UniProt P54646+O43741+P54619+Q9UGJ0+Q9Y478+Q13131+Q9UGI9)
Assay: AMP-dependent Kinase enzyme assay. An in vitro enzyme assay that detects ADP turnover that is directly proportional to AMPK activity. This uses naive AMPK that is activated during the assay with MK-8722
Type: functional
Design: scale not given: direction of the effect not stated beside the values
Settings: 30 µM
quantity: Percent Effect

These recorded examples may help you get a feel for the data.
O=C(CSC1=NS(=O)(=O)c2cc(F)ccc2N1)Nc1cccc(Cl)c1
1.02%
Cc1ccc(N(C)C2CCN(C(=O)c3ccsc3)CC2)nn1
5.3%
COc1ccc(OCC(=O)NC(C)c2ccccc2)c(C(=O)O)c1 (centres undefined)
-0.906%
CC(C)(C)OC(=O)NC(C)(C)c1noc(CN2CCCCC2)n1
-1.12%
CCc1csc(C2CCCN(C(=O)C3=NN(CC)C(=O)CC3)C2)n1 (centres undefined)
-3.68%

Query string: // returns reported Percent Effect for input COc1ccc(CN2CC[C@H]3[C@H]2CCN3C(=O)c2cnn(C)c2)cc1
Result string: 4.48%

Query string: // returns reported Percent Effect for input Cc1cccc(OCCC(=O)N2CCCN(C(N)=O)CC2)c1C
Result string: -5.53%

Query string: // returns reported Percent Effect for input OC1(Cn2ccc3ccncc32)CCN(Cc2ccccn2)CC1
Result string: 1.5%

Query string: // returns reported Percent Effect for input Cc1cnc(N2CC3(CCN(C(=O)c4ccoc4)C3)C2)nc1
Result string: 2.7%

###

Organism: Homo sapiens
Assay: To identify inhibition of the IFN signalling (Jak-Stat) pathway via expression of an eGFP reporter gene under the control of an IFN-stimulated response element (ISRE) containing MxA promoter.
Type: functional
Design: scale not given: direction of the effect not stated beside the values
Conditions: 30 µM
In this section, each of the compounds is paired with its reported Percent Effect.
Output should be the measured figure followed by the unit it is expressed in.

COc1ncc(CN2CC[C@@](C)(O)[C@H](Oc3cccc(F)c3)C2)cn1
8.72%
Cc1cccc(OCCC(=O)N(C)CCNS(C)(=O)=O)c1C
3.29%
CN(CCNC(=O)c1scnc1Cl)c1ccccc1
20%
CN1CCN(C(=O)c2ccc(=O)n(C)c2)Cc2ccccc21
5.67%
CN(C)c1ccc(CC(=O)N[C@@H]2CCNC[C@H]2O)cc1
-17.6%
CN1CCN(c2cc(CNC(=O)c3ccc(=O)n(C)c3)ccn2)CC1
13.3%

Query string: // returns reported Percent Effect for input Cc1cccc(CS(=O)(=O)CC(=O)NCCCOC(C)C)c1
Result string: 23.9%

Query string: // returns reported Percent Effect for input Cc1nn(C)c2cnn(CC(=O)NCCc3ccccc3)c12
Result string: 1.66%

Query string: // returns reported Percent Effect for input Cc1cnn(CC2CCCN2C(=O)c2cccc(CC#N)c2)c1 (configuration not stated)
Result string: -5.56%

Query string: // returns reported Percent Effect for input CCn1cc(N)c(C(=O)NCc2cnn(C)c2)n1
Result string: -5.92%

Query string: // returns reported Percent Effect for input COc1cccc(CN(C)Cc2ccc(C#N)cc2)c1OC
Result string: -3.25%

Query string: // returns reported Percent Effect for input Cc1noc(C)c1C(=O)N1CC[C@H]2C[C@@H](c3ccncn3)O[C@@H]2C1
Result string: -4.26%
